Measured values drawn from ChEMBL document CHEMBL1201861 for this set.

Hi there, I'd appreciate the recorded pIC50 for every entry that follows.
Tested on: SBC-5;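 also: cell viability assay read-out, IC50 is the concentration that inhibits growth of the cells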
ASSAY OVERVIEW: cells
Format: functional, cell-based, Homo sapiens
PROTOCOL CONDITIONS: Homo sapiens, SBC-5
Description: SANGER: Inhibition of human SBC-5 cell growth in a cell viability assay.
pIC50: −log10 of the molar value.

Reported pIC50 for `O=C1N=C(NCc2cccs2)S/C1=C\c1ccc2ncccc2c1` was < 5.30

Reported pIC50 for `O=C(NOCC1CC1)c1ccc(F)c(F)c1Nc1ccc(I)cc1Cl` was < 5.00

Reported pIC50 for `Cc1ccc(Nc2nccc(N(C)c3ccc4c(C)n(C)nc4c3)n2)cc1S(N)(=O)=O` was < 5.10

Reported pIC50 for `Cn1cc(C2=C(c3ccc(Cl)cc3Cl)C(=O)NC2=O)c2ccccc21` was < 5.00
